Target: T1, RlpA-Δ32 (P. aeruginosa PAO1, UniProt Q9X6V6 32-342)
T1 construct: source: E. coli BL21-star (DE3), purified (Ni-NTA)
T1 sequence: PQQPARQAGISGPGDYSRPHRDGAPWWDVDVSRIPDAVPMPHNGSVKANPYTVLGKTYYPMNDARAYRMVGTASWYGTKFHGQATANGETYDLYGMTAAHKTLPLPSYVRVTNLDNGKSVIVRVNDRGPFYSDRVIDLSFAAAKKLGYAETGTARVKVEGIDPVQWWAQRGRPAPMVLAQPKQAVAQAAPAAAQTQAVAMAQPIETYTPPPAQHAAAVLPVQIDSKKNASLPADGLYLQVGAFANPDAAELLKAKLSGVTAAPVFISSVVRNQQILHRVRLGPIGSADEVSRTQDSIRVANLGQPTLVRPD
Assay: SPR
Details: both partners purified

binder: PilA (natural protein, source: E. coli, purified (Ni-NTA or Strep-Tactin)) PQYQNYVARSEGASALATINPLKTTVEESLSRGIAGSKIKIGTTASTATETYVGVEPDANKLGVIAVAIEDSGAGDITFTFQTGTSSPKNATKVITLNRTADGVWACKSTQDPMFTPKGCDN
koff / s⁻¹: 0.00218

Source of measurements: paper PMC9712689
